System: KM12 colon
Assay: NCI tumour cell line growth inhibition, 48 h
The following compounds are listed with their measured TGI values.

{"columns": ["Compound", "Test Target", "TGI"],
 "data": [
  ["Cn1ccc2c(c1=O)C(=O)OC2(C)C", "KM12 colon", "> 100 µM"],
  ["CCN(CC)CCCC(C)Nc1cc(-c2ccccc2)nc2cc(OC)ccc12 (stereo unspecified)", "KM12 colon", "22.3 µM"],
  ["Clc1ccc2c(c1)C(N1CCNCC1)=Nc1ccccc1O2", "KM12 colon", "3.28 µM"],
  ["Nc1nc(N)nc(CC(=O)O)n1", "KM12 colon", "> 100 µM"],
  ["O=[N+]([O-])c1ccc2nc(/C=C(\\O)c3ccc(Cl)cc3)c(/C=C(\\O)c3ccc(Cl)cc3)nc2c1", "KM12 colon", "> 100 µM"],
  ["COc1cccc(C23CCCC(C2)N(C)CC3OC(=O)c2ccccc2)c1OC (stereo unspecified)", "KM12 colon", "61.3 µM"],
  ["O=NN1CCCS1(=O)=O", "KM12 colon", "> 100 µM"],
  ["COC(=O)c1cc(-c2ccc(OC)cc2)[nH]c1N/N=C/c1c(Cl)cccc1Cl", "KM12 colon", "6.75 µM"],
  ["C[C@]12CC[C@H]3[C@@H](CCC4=C(Br)C(=O)C=C[C@@]43O)[C@@H]1CCC2=O", "KM12 colon", "> 100 µM"],
  ["N#C/C(C(=O)Nc1ccccc1)=C(/N)N1CCCCC1", "KM12 colon", "> 100 µM"],
  ["N#Cc1c(C[n+]2ccccc2)c2ccccc2oc1=O", "KM12 colon", "> 100 µM"]
]}
